Sourced from patent US7049289B1

Provide the reported Clot/heart of each item.
Assay: Incorporation into clots induced in a rat model (rat inferior vena cava model)
Type: in vivo, rat (Male Wistar)
Conditions: Aged Clots
The star is where a group is joined. Adamantane1carbonyl = O=C(C12CC3CC(CC(C3)C1)C2)*; Fmoc = O=C(OCC1c2ccccc2-c2ccccc21)*; code Z = not defined here
A bare number is all that is needed in reply.

Clot/heart recorded for this substance, Adamantoyl-NQEQVSPYTLLKG-Pn216 (Adamantane1carbonyl-NQEQVSPYTLLKG-Pn216; also: 99mTc complex) [^99mTc-Cmpd 11] , is 13

Clot/heart recorded for this substance, (CF3)2(C6H3)-NQEQVSPYTLLKG-Pn216 ({(CF3)2(C6H3)}-NQEQVSPYTLLKG-Pn216; also: 99mTc complex) [^99mTc-Cmpd 10] , is 16

Clot/heart recorded for this substance, p-EAQIVG-Pn44 [^99mTc-Cmpd 46] , is 5

Clot/heart recorded for this substance, Ac-NQEQVSP(I2-Y)TLLKG-Pn216 [^99mTc-Cmpd 23] , is 1

Clot/heart recorded for this substance, Ac-NQEQVSPYTLLKG-Pn44 (also: 99mTc complex) [^99mTc-Cmpd 3] , is 23

Clot/heart recorded for this substance, Ac-LEFDTQSKNILG-Pn216 (also: 99mTc complex) [^99mTc-Cmpd 47] , is 46

Clot/heart recorded for this substance, Fmoc-NQEQVSPYTLLKG-Pn216 (also: 99mTc complex) [^99mTc-Cmpd 9] , is 21

Clot/heart recorded for this substance, Z-NQEQVSPYAAAAG-Pn216 ({code Z}-NQEQVSPYAAAAG-Pn216; reading uncertain; also: 99mTc complex, printed as Z-NQEQVSPYAAAAG-Pn216) [^99mTc-Cmpd 42] , is 21

Clot/heart recorded for this substance, Ac-NQEQVSPYTLLKG-(PEG)10k-Pn216 (Ac-NQEQVSPYTLLKG-{PEG 10k-Pn216}; also: 99mTc complex) [^99mTc-Cmpd 41] , is 13

Clot/heart recorded for this substance, Ac-NQEQVSPLTLLKG-Pn216 (also: 99mTc complex) [^99mTc-Cmpd 19] , is 13

Clot/heart recorded for this substance, Ac-NQEQVG-Pn44 [^99mTc-Cmpd 17] , is 7

###

Provide the reported Clot/blood of each item.
Experiment: Incorporation into clots induced in a rat model (rat inferior vena cava model)
Assay type: in vivo, rat (Male Wistar)
Details: Fresh Clots
Description: The rats (Male Wistar, 250–350 g) were anaesthetised with 15% urethane. After laparotomy, the vena cava was isolated and freed of surrounding fat tissue. […] The compounds were injected 5 min (fresh clot) and 60 min (aged clot) post-induction. After 60 min the animals were sacrificed and the clot removed, weighed and counted. Other tissues e.g. blood, lung, heart, were also dissected and counted. […]
A bare number is all that is needed in reply.

Clot/blood recorded for this substance, Ac-NQEQVSP(D-Y)TLL(D-K)βAla-Pn216 [^99mTc-Cmpd 33] , is 11

Clot/blood recorded for this substance, Ac-NQEQVSP(pBr-F)TLLKG-Pn216 [^99mTc-Cmpd 21] , is 11

Clot/blood recorded for this substance, Cyclo-[NQEQVSPYTLLKG] (cyclo(NQEQVSPYTLLKG); also: 123I label, place not given here) [^123I-Cmpd 44] , is 0.9

Clot/blood recorded for this substance, Ac-NQEAVSPYTLLKG-Pn216 (also: 99mTc complex) [^99mTc-Cmpd 13] , is 7

Clot/blood recorded for this substance, p-EAQIVG-Pn44 [^99mTc-Cmpd 46] , is 5

###

Biological target: fibrin (in vitro human plasma clot) (Homo sapiens, UniProt P02671+P02675+P02679)
Construct: about 400 μl of human plasma containing the radiolabelled substrate; from tissue; host or cells: human plasma, clotted in vitro with added thrombin and calcium chloride
Sequence (P02671 20-644 isoform P02671-2 limits assumed): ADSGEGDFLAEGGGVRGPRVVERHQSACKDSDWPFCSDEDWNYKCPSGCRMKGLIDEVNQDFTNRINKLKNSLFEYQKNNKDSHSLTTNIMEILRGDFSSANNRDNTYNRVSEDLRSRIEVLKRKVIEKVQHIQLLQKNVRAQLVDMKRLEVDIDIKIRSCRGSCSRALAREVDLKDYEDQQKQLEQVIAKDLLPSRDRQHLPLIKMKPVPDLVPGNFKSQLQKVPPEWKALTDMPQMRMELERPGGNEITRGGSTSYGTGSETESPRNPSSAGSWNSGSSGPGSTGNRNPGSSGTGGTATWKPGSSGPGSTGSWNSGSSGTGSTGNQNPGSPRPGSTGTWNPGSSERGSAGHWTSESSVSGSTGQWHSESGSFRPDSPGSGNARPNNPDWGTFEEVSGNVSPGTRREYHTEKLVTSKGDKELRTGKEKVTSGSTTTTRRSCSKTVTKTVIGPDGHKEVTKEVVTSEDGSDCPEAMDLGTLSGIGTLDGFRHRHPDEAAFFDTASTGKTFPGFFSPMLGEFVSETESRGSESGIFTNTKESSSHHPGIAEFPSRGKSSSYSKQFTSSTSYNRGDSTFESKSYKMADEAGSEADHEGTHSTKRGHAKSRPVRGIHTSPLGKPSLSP
Sequence (P02675 45-491 limits assumed): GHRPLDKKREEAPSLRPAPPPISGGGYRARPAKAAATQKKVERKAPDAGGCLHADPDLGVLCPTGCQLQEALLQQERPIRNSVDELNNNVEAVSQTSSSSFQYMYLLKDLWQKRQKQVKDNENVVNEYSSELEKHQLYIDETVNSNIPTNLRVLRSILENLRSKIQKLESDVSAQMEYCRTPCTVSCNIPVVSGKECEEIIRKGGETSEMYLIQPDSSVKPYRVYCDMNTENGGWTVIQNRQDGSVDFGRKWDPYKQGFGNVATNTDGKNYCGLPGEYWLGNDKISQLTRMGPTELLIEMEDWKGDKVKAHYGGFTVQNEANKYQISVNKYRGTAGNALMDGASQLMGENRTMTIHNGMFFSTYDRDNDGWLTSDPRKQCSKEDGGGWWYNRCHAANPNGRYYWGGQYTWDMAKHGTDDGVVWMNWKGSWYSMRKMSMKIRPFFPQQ
Sequence (P02679 27-437 isoform P02679-2 limits assumed): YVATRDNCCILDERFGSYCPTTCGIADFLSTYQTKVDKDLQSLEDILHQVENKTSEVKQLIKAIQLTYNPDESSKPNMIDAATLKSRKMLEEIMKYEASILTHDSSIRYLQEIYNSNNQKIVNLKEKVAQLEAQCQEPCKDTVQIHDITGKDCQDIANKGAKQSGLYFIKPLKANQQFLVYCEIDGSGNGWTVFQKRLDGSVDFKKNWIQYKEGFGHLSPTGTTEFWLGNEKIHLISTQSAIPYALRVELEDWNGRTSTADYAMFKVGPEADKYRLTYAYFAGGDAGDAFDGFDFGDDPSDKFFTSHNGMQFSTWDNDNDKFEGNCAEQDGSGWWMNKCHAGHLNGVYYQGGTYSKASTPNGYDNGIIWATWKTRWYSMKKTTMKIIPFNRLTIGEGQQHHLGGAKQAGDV
Experiment: Incorporation into human plasma clots in vitro
Format: biochemical
Conditions: control without thrombin and calcium chloride (non-specific binding)
*1 amine or outer side, *2 acyl side, *3 side chain or, on linkers, in order; H or OH if unused. The star is where a group is joined. Adamantane1carbonyl = O=C(C12CC3CC(CC(C3)C1)C2)*; Fmoc = O=C(OCC1c2ccccc2-c2ccccc21)*; Glutaryl = O=C(CCCC(=O)[*:2])[*:1]; code Z = not defined here
// class assignment uses % retained (no thrombin) with these ranges: lo (below 0.2%), mid (0.2% to below 0.5%), hi (0.5% or more)

Which category does the recorded % retained (no thrombin) put NQEQVSPYTLLK [^123I-Cmpd 1, reference compound] in?
hi

Which category does the recorded % retained (no thrombin) put Ac-(D-N)QEQVSP(D-Y)TLL(D-K)G-Pn216 [^99mTc-Cmpd 32] in?
mid

Which category does the recorded % retained (no thrombin) put Ac-LEFDTQSKNILG-Pn216 (also: 99mTc complex) [^99mTc-Cmpd 47] in?
lo

Which category does the recorded % retained (no thrombin) put Ac-NQEQVSP-Nal(2)-TLLKG-Pn216 [^99mTc-Cmpd 20] in?
hi

Which category does the recorded % retained (no thrombin) put Ac-GQDPVKG-Pn216 (also: 99mTc complex) [^99mTc-Cmpd 48] in?
lo

Which category does the recorded % retained (no thrombin) put Ac-NQEQVSPYTLLKG-Pn44 (also: 99mTc complex) [^99mTc-Cmpd 3] in?
mid

Which category does the recorded % retained (no thrombin) put Adamantoyl-NQEQVSPYTLLKG-Pn216 (Adamantane1carbonyl-NQEQVSPYTLLKG-Pn216; also: 99mTc complex) [^99mTc-Cmpd 11] in?
hi

Which category does the recorded % retained (no thrombin) put Ac-N—CH2NH2-QEQVSP(D-Y)TLL(D-K)G-Pn216 [^99mTc-Cmpd 34] in?
lo

Which category does the recorded % retained (no thrombin) put Z-NQEQVSPYTLLKG-Pn216 ({code Z}-NQEQVSPYTLLKG-Pn216; reading uncertain; also: 99mTc complex, printed as Z-NQEQVSPYTLLKG-Pn216) [^99mTc-Cmpd 8] in?
hi

Which category does the recorded % retained (no thrombin) put Ac-NQEQVSPYTLLKG-(PEG)3.4k-Pn44 (Ac-NQEQVSPYTLLKG-{PEG 3.4k-Pn44}; also: 99mTc complex) [^99mTc-Cmpd 40] in?
lo

Which category does the recorded % retained (no thrombin) put Ac-NQEQVG-Pn44 [^99mTc-Cmpd 17] in?
hi

Which category does the recorded % retained (no thrombin) put Fmoc-NQEQVSP(I-Y)TLLKG-Pn216 [^99mTc-Cmpd 26] in?
hi

Which category does the recorded % retained (no thrombin) put Z-NQEQVSPYG-Pn216 ({code Z}-NQEQVSPYG-Pn216; reading uncertain; also: 99mTc complex, printed as Z-NQEQVSPYG-Pn216) [^99mTc-Cmpd 18] in?
lo

Which category does the recorded % retained (no thrombin) put Ac-NQEAVSPYTLLKG-Pn44 (also: 99mTc complex) [^99mTc-Cmpd 12] in?
mid

Which category does the recorded % retained (no thrombin) put Ac-LGPGQSKVIG-Pn44 (also: 99mTc complex) [^99mTc-Cmpd 45] in?
lo

Which category does the recorded % retained (no thrombin) put Ac-NQEQVSP(I2-Y)TLLKG-Pn216 [^99mTc-Cmpd 23] in?
lo

Which category does the recorded % retained (no thrombin) put Ac-NQEQVSP(D-Y)TLL(D-K)G-Pn216 [^99mTc-Cmpd 29] in?
lo

Which category does the recorded % retained (no thrombin) put Pn44-CO(CH2)3CO-NQEQVSPYTLLKG-NH2 ({Pn44-Glutaryl}-NQEQVSPYTLLKG-NH2; also: 99mTc complex) [^99mTc-Cmpd 38] in?
hi

Which category does the recorded % retained (no thrombin) put Z-NQEQVSP(I-Y)TLLKG-Pn216 [^99mTc-Cmpd 24] in?
mid

Which category does the recorded % retained (no thrombin) put Pn216-CO(CH2)3CO-NQEQVSPYTLLKG-NH2 ({Pn216-Glutaryl}-NQEQVSPYTLLKG-NH2; also: 99mTc complex) [^99mTc-Cmpd 39] in?
lo

Which category does the recorded % retained (no thrombin) put Ac-NQQQVSPYTLLKG-Pn216 (also: 99mTc complex) [^99mTc-Cmpd 15] in?
mid

Which category does the recorded % retained (no thrombin) put Cyclo-[NQEQVSPYTLLKG] (cyclo(NQEQVSPYTLLKG); also: 123I label, place not given here) [^123I-Cmpd 44] in?
mid

Which category does the recorded % retained (no thrombin) put Fmoc-NQEQVSPYTLLKG-Pn216 (also: 99mTc complex) [^99mTc-Cmpd 9] in?
hi

Which category does the recorded % retained (no thrombin) put Z-NQEQVSP(I2-Y)TLLKG-Pn216 [^99mTc-Cmpd 25] in?
hi
